Molecular target: Fas on the cell surface of human cell lines (MOLT-4, CESS, T47D) (human, UniProt P25445)
Test: cell-based or functional assay
readoutName: % apoptotic cells, T47D (% apoptotic cells)
A number alone suffices; assume % apoptotic cells.

Observe how each entry below is paired with its result.
[[record]]
binder = "HuABL364 Ig-FasL5 V248A (other) heavy (part 1 of 2): EVQLLESGGGLVQPGGSLRLSCAASGFTFSDYYMYWVRQAPEKRLEWVAYISNGGGSSHYVDSVKGRFTISRDNAKNTLYLQMNSLRAEDTALYHCARGMDYGAWFAYWGQGTLVTVSS heavy (part 2 of 2): GTGHPSPPPEKKELRKVAHLTGKSNSRSMPLEWEDTYGIVLLSGVKYKKGGLVINETGLYFVYSKVYFRGQSCNNLPLSHKVYMRNSKYPQDLVMMEGKMMSYCTTGQMWARSSYLGAAFNLTSADHLYVNVSELSLVNFEESQTFFGLYKL light: DIVMTQSPLSLPVTPGEPASISCRSSQSIVHSNGNTYLEWYLQKPGQSPQLLISKVSNRFSGVPDRFSGSGSGTDFTLKISRVEAEDVGVYYCFQGSHVPFTFGQGTKLEIK"
readoutname = "% apoptotic cells, T47D"
numericresult = 95

[[record]]
binder = "HuABL364 Ig-FasL5 (other) heavy (part 1 of 2): EVQLLESGGGLVQPGGSLRLSCAASGFTFSDYYMYWVRQAPEKRLEWVAYISNGGGSSHYVDSVKGRFTISRDNAKNTLYLQMNSLRAEDTALYHCARGMDYGAWFAYWGQGTLVTVSS heavy (part 2 of 2): GTGHPSPPPEKKELRKVAHLTGKSNSRSMPLEWEDTYGIVLLSGVKYKKGGLVINETGLYFVYSKVYFRGQSCNNLPLSHKVYMRNSKYPQDLVMMEGKMMSYCTTGQMWARSSYLGAVFNLTSADHLYVNVSELSLVNFEESQTFFGLYKL light: DIVMTQSPLSLPVTPGEPASISCRSSQSIVHSNGNTYLEWYLQKPGQSPQLLISKVSNRFSGVPDRFSGSGSGTDFTLKISRVEAEDVGVYYCFQGSHVPFTFGQGTKLEIK"
readoutname = "% apoptotic cells, T47D"
numericresult = 91

[[record]]
binder = "HuABL364 Ig-FasL5 H148S (other) heavy (part 1 of 2): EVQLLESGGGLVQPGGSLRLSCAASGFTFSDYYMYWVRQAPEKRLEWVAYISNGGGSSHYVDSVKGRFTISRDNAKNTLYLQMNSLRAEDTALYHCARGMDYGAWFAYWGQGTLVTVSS heavy (part 2 of 2): GTGHPSPPPEKKELRKVASLTGKSNSRSMPLEWEDTYGIVLLSGVKYKKGGLVINETGLYFVYSKVYFRGQSCNNLPLSHKVYMRNSKYPQDLVMMEGKMMSYCTTGQMWARSSYLGAVFNLTSADHLYVNVSELSLVNFEESQTFFGLYKL light: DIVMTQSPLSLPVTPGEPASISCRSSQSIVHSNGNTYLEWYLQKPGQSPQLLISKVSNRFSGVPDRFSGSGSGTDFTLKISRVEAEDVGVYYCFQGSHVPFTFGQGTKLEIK"
readoutname = "% apoptotic cells, T47D"
numericresult = 15


Turning now to a further binder:
Query string: Entry under review: HuABL364 Ig-FasL5 Y232A (other) heavy (part 1 of 2): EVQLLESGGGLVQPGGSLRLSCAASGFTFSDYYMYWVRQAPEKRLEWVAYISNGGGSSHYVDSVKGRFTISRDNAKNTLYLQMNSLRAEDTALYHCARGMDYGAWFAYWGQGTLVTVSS heavy (part 2 of 2): GTGHPSPPPEKKELRKVAHLTGKSNSRSMPLEWEDTYGIVLLSGVKYKKGGLVINETGLYFVYSKVYFRGQSCNNLPLSHKVYMRNSKYPQDLVMMEGKMMSACTTGQMWARSSYLGAVFNLTSADHLYVNVSELSLVNFEESQTFFGLYKL light: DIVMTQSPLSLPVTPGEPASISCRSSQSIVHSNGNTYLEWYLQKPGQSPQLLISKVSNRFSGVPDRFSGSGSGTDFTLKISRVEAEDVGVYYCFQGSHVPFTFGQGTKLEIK . Reported % apoptotic cells, T47D?
Result string: 88
